- target.or.test.system: UniProt Q13153
- Sequence (Q13153 whole entry): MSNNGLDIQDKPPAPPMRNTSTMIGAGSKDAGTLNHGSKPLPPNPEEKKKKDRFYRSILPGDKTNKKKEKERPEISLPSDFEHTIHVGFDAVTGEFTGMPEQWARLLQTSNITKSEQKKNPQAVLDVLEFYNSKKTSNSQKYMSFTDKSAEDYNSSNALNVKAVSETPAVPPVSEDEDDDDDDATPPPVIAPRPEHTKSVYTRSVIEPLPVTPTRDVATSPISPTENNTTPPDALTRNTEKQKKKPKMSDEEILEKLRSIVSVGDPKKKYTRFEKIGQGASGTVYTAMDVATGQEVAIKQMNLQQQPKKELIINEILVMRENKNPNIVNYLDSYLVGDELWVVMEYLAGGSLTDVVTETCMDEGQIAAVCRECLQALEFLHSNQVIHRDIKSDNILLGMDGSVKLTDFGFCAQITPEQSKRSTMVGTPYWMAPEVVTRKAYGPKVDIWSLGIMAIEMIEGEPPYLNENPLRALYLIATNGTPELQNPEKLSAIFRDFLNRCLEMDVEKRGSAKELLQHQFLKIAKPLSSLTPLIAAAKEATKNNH
Each entry below carries its recorded IC50.

A selection of reference data follows.
[
  {
    "compound": "COc1nc(N2CCNCC2)ccc1Nc1ncc2c(n1)N1CCCN=C1C(c1ccc(Cl)cc1Cl)=C2 [Compound 70]",
    "reported.metric": "IC50",
    "value.observed": "> 10 µM"
  },
  {
    "compound": "Fc1ccc(Nc2ncc3c(n2)N2CCN=C2C(c2ccccc2Cl)=C3)cc1 [Compound 19]",
    "reported.metric": "IC50",
    "value.observed": "> 10 µM"
  }
]

Inquiry: Please supply the value of reported IC50 for the item COc1nc(N2CCNCC2)ccc1Nc1ncc2c(n1)N1CCN=C1C(c1ccc(C)cc1)=C2 [Compound 38]
Reply text: > 10 µM

Inquiry: Please supply the value of reported IC50 for the item Cc1ccccc1C1=Cc2cnc(Nc3ccc(N4CCNCC4)cc3F)nc2N2CCN=C12 [Compound 30]
Reply text: > 10 µM

Inquiry: Please supply the value of reported IC50 for the item Fc1cc(N2CCNCC2)ccc1Nc1ncc2c(n1)N1CCN=C1C(c1ccncc1)=C2 [Compound 34]
Reply text: > 10 µM

Inquiry: Please supply the value of reported IC50 for the item Fc1cc(Nc2ncc3c(n2)N2CCN=C2C(c2ccc(Cl)cc2)=C3)ccc1N1CCNCC1 [Compound 26]
Reply text: 0.1 to 10 µM

Inquiry: Please supply the value of reported IC50 for the item Fc1cc(N2CCNCC2)ccc1Nc1ncc2c(n1)N1CCN=C1C(c1ccccc1Cl)=C2 [Compound 12]
Reply text: 0.1 to 10 µM

Inquiry: Please supply the value of reported IC50 for the item Fc1cc(N2CCNCC2)ccc1Nc1ncc2c(n1)N1CCN=C1C(c1ccc(Cl)cc1)=C2 [Compound 28]
Reply text: > 10 µM

Inquiry: Please supply the value of reported IC50 for the item Clc1cccc(Cl)c1C1=Cc2cnc(N3CCNCC3)nc2N2CCN=C12 [Compound 50]
Reply text: > 10 µM

Inquiry: Please supply the value of reported IC50 for the item COc1nc(N2CCNCC2)ccc1Nc1ncc2c(n1)N1CCN=C1C(c1ccc(Cl)cc1)=C2 [Compound 36]
Reply text: > 10 µM
